molecular target: UniProt:P50391; experiment: Intrinsic activity at human neuropeptide Y Y4 receptor expressed in CHO-mtAEQ cells co-expressing Gqi5 by calcium aequorin assay; assay type: functional, cell-based
Sequence (P50391 whole entry): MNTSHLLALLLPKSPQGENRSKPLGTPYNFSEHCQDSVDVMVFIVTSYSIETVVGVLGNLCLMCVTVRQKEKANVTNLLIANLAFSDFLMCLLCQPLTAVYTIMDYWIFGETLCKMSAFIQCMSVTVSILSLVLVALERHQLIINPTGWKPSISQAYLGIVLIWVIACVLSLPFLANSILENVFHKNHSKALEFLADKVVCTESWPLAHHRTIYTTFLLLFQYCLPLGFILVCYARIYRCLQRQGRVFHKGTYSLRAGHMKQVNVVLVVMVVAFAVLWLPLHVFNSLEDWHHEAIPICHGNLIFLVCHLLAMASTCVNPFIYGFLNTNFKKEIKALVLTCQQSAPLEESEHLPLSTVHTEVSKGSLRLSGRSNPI
Activity calls are given as the source filed them. No cut-off for these calls is given here. Starred links: 1 amine or outer side, 2 acyl side, 3 side chain; linkers in the order of their positions; H or OH if unused. Residues, ends and D or L forms follow the SMILES beside them. Groups on a side chain read outwards from the residue. *: point of attachment. Suc = O=C(CCC(=O)[*:2])[*:1]; CO = O=C([*:1])[*:2]; NH(CH2)3NH2 = NCCCN*
PROPERTY NAME: Intrinsic activity

1) N=C(N)NCCC[C@H](NC(=O)CCC(=O)O)C(=O)N[C@@H](Cc1ccc(O)cc1)C(=O)N[C@@H](CCCNC(=N)NC(=O)NCCCN)C(=O)N[C@@H](Cc1c[nH]c2ccccc12)C(=O)N[C@@H](CCCNC(=N)N)C(=O)N[C@@H](Cc1ccc(O)cc1)C(N)=O (Suc-RYR([CO-NH(CH2)3NH2])WRY-NH2): inactive
2) CC(=O)N[C@@H](CCCNC(=N)N)C(=O)N[C@@H](Cc1ccc(O)cc1)C(=O)N[C@@H](CCCNC(=N)N)C(=O)N[C@@H](CC(C)C)C(=O)N[C@@H](CCCNC(=N)N)C(=O)N[C@@H](Cc1ccc(O)cc1)C(N)=O: 75%
3) N=C(N)NCCC[C@H](NC(=O)CCC(=O)O)C(=O)N[C@@H](Cc1ccc(O)cc1)C(=O)N[C@@H](CCCNC(=N)NC(=O)NCCCCN)C(=O)N[C@@H](Cc1c[nH]c2ccccc12)C(=O)N[C@@H](CCCNC(=N)N)C(=O)N[C@@H](Cc1ccc(O)cc1)C(N)=O (single isomer, unassigned): inactive
4) CC(C)C[C@H](NC(=O)[C@H](CCCNC(=N)NC(=O)NCCCCN)NC(=O)[C@H](Cc1ccc(O)cc1)NC(=O)[C@H](CCCNC(=N)N)NC(=O)CCC(=O)O)C(=O)N[C@@H](CCCNC(=N)N)C(=O)N[C@@H](Cc1ccc(O)cc1)C(N)=O: 70%

Q) Specify reported Intrinsic activity for the compound shown: CC(C)C[C@H](NC(=O)[C@@H]1CC(=O)NCC(=O)N[C@H](CCCNC(=N)N)C(=O)N[C@@H](CCCNC(=N)N)C(=O)N1)C(=O)N[C@@H](CCCNC(=N)N)C(=O)N[C@@H](Cc1ccc(O)cc1)C(N)=O
A) inactive

Q) Specify reported Intrinsic activity for the compound shown: CC(C)C[C@H](NC(=O)[C@H](CCCNC(=N)NC(=O)NCCCN)NC(=O)[C@H](Cc1ccc(O)cc1)NC(=O)[C@H](CCCNC(=N)N)NC(=O)CCC(=O)O)C(=O)N[C@@H](CCCNC(=N)N)C(=O)N[C@@H](Cc1ccc(O)cc1)C(N)=O
A) 65%

Q) Specify reported Intrinsic activity for the compound shown: CC(C)C[C@H](NC(=O)[C@@H]1CCCNC(=N)NC(=O)NCCCCNC(=O)CCC(=O)N[C@@H](CCCNC(=N)N)C(=O)N[C@@H](Cc2ccc(O)cc2)C(=O)N1)C(=O)N[C@@H](CCCNC(=N)N)C(=O)N[C@@H](Cc1ccc(O)cc1)C(N)=O
A) 82%

Q) Specify reported Intrinsic activity for the compound shown: CC(C)C[C@H](NC(=O)[C@H](CCCNC(=N)N)NC(=O)[C@@H]1CCC(=O)N[C@@H](CCCNC(=N)N)C(=O)NCC(=O)N[C@@H](Cc2ccc(O)cc2)C(=O)N1)C(=O)N[C@@H](CCCNC(=N)N)C(=O)N[C@@H](Cc1ccc(O)cc1)C(N)=O (HELM PEPTIDE1{R.G.Y.E.R.L.R.Y.[am]}$PEPTIDE1,PEPTIDE1,1:R1-4:R3$$$V2.0)
A) 48%
